Tested on: zidovudine-resistant primary clinical HIV-1 isolates
EXPERIMENT: p24 drug susceptibility assay, NRTI-/zidovudine-resistant primary clinical HIV-1 isolates in PBMC
Type: cell-based
TEST PARAMETERS: Human immunodeficiency virus 1, PBMC, isolate X267-1 (L74V); PBMC, p24
QUANTITY KIND: IC50 (nM)
Note: unit nM is implicit; provide only the numeric part.

COMPOUND: COC(=O)C(C)NP(=O)(OC[C@@H]1C=C[C@H](n2cc(C)c(=O)[nH]c2=O)O1)Oc1ccc(Br)cc1 (some centres unmarked)
RESULT: 0.2

Next item in the queue.
response.value for Cc1cn([C@H]2C[C@H](N=[N+]=[N-])[C@@H](CO)O2)c(=O)[nH]c1=O (field: IC50) = 600
